# STUDY SYSTEM: IDH1-R132C recombinant protein (Homo sapiens (Human), UniProt O75874, R132C)
# Sequence (O75874 whole entry R132C): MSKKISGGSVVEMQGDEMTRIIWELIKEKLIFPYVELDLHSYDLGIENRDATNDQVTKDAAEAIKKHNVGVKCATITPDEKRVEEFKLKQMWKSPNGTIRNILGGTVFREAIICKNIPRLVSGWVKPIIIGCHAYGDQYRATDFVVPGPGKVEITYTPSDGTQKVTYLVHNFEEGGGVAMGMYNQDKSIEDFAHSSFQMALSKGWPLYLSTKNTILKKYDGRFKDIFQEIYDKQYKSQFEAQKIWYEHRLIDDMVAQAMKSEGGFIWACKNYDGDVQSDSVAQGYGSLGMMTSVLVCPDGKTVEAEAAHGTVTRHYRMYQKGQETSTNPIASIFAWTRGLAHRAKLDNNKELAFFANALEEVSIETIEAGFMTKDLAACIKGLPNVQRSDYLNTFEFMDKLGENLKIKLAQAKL
# ASSAY OVERVIEW: IDH1-R132C enzymatic assay (inhibition of NADPH consumption, diaphorase/resazurin readout)
# TEST CONDITIONS: read-out: Enzyme IDH1 R132C IC50 (Range)
ASSAY READOUT: IC50

[
  {
    "INPUT SMILES": "Cc1nn(C)c(C)c1-c1ccnc(N[C@@H](C)c2cc3cc(Cl)ccc3[nH]c2=O)n1",
    "IC50": "> 10000 nM"
  },
  {
    "INPUT SMILES": "COc1nc(N[C@@H](C)c2cc3cc(Cl)cnc3[nH]c2=O)ncc1C#N",
    "IC50": "1000 to 10000 nM"
  },
  {
    "INPUT SMILES": "CC(C)Cn1cncc1-c1ccnc(N[C@@H](C)c2cc3cc(Cl)ccc3[nH]c2=O)n1",
    "IC50": "100 to 1000 nM"
  },
  {
    "INPUT SMILES": "CC(C)N(c1ccnc(N[C@@H](C)c2cc3cc(Cl)ccc3[nH]c2=O)n1)S(=O)(=O)c1cccnc1",
    "IC50": "< 100 nM"
  }
]

Entry `C[C@H](Nc1nccc(-c2cncn2CC2CC2)n1)c1cc2cc(Cl)ccc2[nH]c1=O` , IC50 reported as < 100 nM

Entry `COc1nc(N[C@@H](C)c2cc3cc(Cl)c(C4CC4)cc3[nH]c2=O)ncc1C#N` , IC50 reported as 100 to 1000 nM

Entry `C[C@H](Nc1nccc(C(N)=O)n1)c1cc2cc(Cl)ccc2[nH]c1=O` , IC50 reported as 100 to 1000 nM

Entry `C[C@H](Nc1nccc(-c2coc3ccccc23)n1)c1cc2cc(Cl)ccc2[nH]c1=O` , IC50 reported as 1000 to 10000 nM
